Origin of measurements: paper PMC3413153

- system.under.test: T1, KSRP KH1-4, KH3 mutant (human, UniProt Q92945 68-525, R340D;S341D)
- T1 sequence: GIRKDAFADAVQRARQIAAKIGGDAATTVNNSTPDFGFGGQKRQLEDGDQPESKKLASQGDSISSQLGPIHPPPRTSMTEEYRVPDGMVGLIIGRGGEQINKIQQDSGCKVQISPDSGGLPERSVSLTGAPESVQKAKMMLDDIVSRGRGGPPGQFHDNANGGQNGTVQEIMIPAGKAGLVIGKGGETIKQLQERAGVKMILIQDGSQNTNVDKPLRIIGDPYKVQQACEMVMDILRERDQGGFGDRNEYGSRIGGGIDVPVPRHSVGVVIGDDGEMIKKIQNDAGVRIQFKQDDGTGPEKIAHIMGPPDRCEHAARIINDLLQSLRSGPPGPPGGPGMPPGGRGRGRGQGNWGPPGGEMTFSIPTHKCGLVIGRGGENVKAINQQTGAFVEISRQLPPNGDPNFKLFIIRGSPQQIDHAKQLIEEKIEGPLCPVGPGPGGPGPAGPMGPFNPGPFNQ
- procedure.summary: BLI
readout.name: pKd
Give bare numbers, as −log10 of the molar value.

What the record says about GUGUGUUAUUAUUUAUUAUUUAUUUAUUAUUUAUUUAUUCAG (ssRNA) [TNFalpha BLI ARE 42-mer] : pKd is 7.02
